biological target: mouse Smoothened receptor (Mus musculus)
Sequence (P56726 33-793): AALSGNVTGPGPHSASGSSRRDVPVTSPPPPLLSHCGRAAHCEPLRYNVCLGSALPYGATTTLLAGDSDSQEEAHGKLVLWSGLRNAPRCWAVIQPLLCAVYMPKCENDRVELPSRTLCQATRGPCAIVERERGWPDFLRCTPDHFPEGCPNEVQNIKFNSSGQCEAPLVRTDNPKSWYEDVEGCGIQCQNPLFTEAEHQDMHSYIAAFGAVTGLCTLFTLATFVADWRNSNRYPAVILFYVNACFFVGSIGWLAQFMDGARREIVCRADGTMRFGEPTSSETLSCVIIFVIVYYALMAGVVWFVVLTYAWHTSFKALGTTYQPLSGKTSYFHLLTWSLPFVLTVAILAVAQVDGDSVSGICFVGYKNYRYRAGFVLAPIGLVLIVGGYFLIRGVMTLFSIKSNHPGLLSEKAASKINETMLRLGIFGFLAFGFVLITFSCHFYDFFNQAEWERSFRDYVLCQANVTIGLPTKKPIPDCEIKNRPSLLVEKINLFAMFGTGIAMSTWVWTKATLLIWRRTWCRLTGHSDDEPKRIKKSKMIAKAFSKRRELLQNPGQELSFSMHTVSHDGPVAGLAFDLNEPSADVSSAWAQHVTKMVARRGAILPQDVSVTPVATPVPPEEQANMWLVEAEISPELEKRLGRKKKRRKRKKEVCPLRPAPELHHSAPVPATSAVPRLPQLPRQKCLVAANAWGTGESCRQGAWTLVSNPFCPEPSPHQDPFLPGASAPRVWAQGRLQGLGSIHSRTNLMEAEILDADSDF
pIC50: −log10 of the molar value.
Endpoint: pIC50

Please review the following examples before continuing.
- Structure Smiles String: "c1ccc(Cc2nnc(N3CCN(c4ccc(CN(C5COC5)C5COC5)cn4)CC3)c3ccccc23)cc1"
  System Name: "mouse Smoothened receptor (Mus musculus)"
  pIC50: "> 7.00"
- Structure Smiles String: "Fc1cnc(N2CCN(c3nnc(Cc4ccccc4)c4ccccc34)CC2)c(F)c1"
  System Name: "mouse Smoothened receptor (Mus musculus)"
  pIC50: "6.00 to 7.00"
- Structure Smiles String: "CNC(=O)NCc1ccc(N2CCN(c3nnc(Cc4ccccc4)c4ccccc34)CC2)nc1"
  System Name: "mouse Smoothened receptor (Mus musculus)"
  pIC50: "6.00 to 7.00"

Now for a further molecule.
Query block: Return pIC50 measured with mouse Smoothened receptor (Mus musculus) given this molecule: CCCc1cnc(N2CCCN(c3nnc(Cc4ccccc4)c4ccccc34)CC2)nc1
Result block: > 7.00

Cited source for all entries: patent US8536168B2
